system: DU145; test: Euclidean distance of Cell Painting phenotypic profile (signed KS, 77 features) to DMSO centroid (dimensionless distance); 5 or 10 uM (library dependent); higher = stronger phenotypic change vs DMSO (phenoactivity); conditions: 48 h
Where a name gives a salt, the structure may show the parent alone.
MEASURE: Euclidean distance
Lab note: record just the number, no unit beside it.

// O=C1c2ccccc2C(=O)c2c1ccc(O)c2O : Euclidean distance value = 1.35

// CCOCc1nc2c(N)nc3ccccc3c2n1CC(C)(C)O : Euclidean distance value = 1.47

// CS(=O)(=O)c1ccc(-c2cnc(N)c(C(=O)Nc3ccccc3)n2)cc1 : Euclidean distance value = 1.29

// COc1cc(OC)cc(N(CCNC(C)C)c2ccc3ncc(-c4cnn(C)c4)nc3c2)c1 : Euclidean distance value = 2.34

// CCC1=C(C)CN(C(=O)NCCc2ccc(S(=O)(=O)NC(=O)N[C@H]3CC[C@H](C)CC3)cc2)C1=O [Glimepiride] : Euclidean distance value = 0.621

// CC1(C)O[C@@H]2C[C@H]3[C@@H]4CCC5=CC(=O)C=C[C@]5(C)[C@H]4[C@@H](O)C[C@]3(C)[C@]2(C(=O)CO)O1 [Desonide] : Euclidean distance value = 2.27

// Nc1ccc(S(=O)(=O)c2ccc(N)cc2)cc1 : Euclidean distance value = 2.45

// N#CC(c1ccnc(OCc2ccc(CN3CCOCC3)cc2)n1)c1nc2ccccc2s1 (stereo not given) : Euclidean distance value = 1.31

// N[C@H](C(=O)O)[C@H](O)c1ccc(O)c(O)c1 : Euclidean distance value = 0.724

// O=C(OC(C(F)(F)F)C(F)(F)F)N1CCN(Cc2ccc(C(F)(F)F)cc2N2CCCC2)CC1 : Euclidean distance value = 0.875

// Cc1ccc([C@@H]2O[C@H](CO)[C@@H](O)[C@H](O)[C@H]2O)cc1Cc1ccc(-c2ccc(F)cc2)s1 [Canagliflozin] : Euclidean distance value = 0.716

// O=C(O)C(=O)O.[NH-][C@@H]1CCCC[C@H]1[NH-].[Pt+2] : Euclidean distance value = 1.5

// NCCc1c[nH]cn1 [Histamine 2HCl] : Euclidean distance value = 0.954

// Cc1cc(C)nc(NS(=O)(=O)c2ccc(NC(=S)NC(=O)COc3ccc(Br)cc3Cl)cc2)n1 : Euclidean distance value = 0.713

// C[C@H](O)[C@H](O)[C@H]1CNc2[nH]c(N)nc(=O)c2N1 [Sapropterin Dihydrochloride] : Euclidean distance value = 0.871

// C[C@H]1[C@H](OC(=O)CCC(=O)O)O[C@@H]2O[C@@]3(C)CC[C@H]4[C@H](C)CC[C@@H]1[C@@]24OO3 [Artesunate] : Euclidean distance value = 1.01

// CC(C)Cc1ccc([C@@H](C)C(=O)NS(C)(=O)=O)cc1 [Reparixin (Repertaxin)] : Euclidean distance value = 0.933

// NC(=O)/N=N/C(N)=O [Azodicarbonamide] : Euclidean distance value = 1.15

// N=C1CCCN1Cc1[nH]c(=O)[nH]c(=O)c1Cl.O=c1[nH]c(=O)n([C@H]2C[C@H](O)[C@@H](CO)O2)cc1C(F)(F)F : Euclidean distance value = 3.37

// CCN(CCCCOC(=O)c1ccc(OC)c(OC)c1)C(C)Cc1ccc(OC)cc1 (stereo not given) [Mebeverine Hydrochloride] : Euclidean distance value = 1.06

// CC(=C(CCOC(=O)C(C)C)SSC(CCOC(=O)C(C)C)=C(C)N(C=O)Cc1cnc(C)nc1N)N(C=O)Cc1cnc(C)nc1N (stereo in doubt) : Euclidean distance value = 0.854

// CCS(=O)(=O)N1CC(CC#N)(n2cc(-c3ncnc4[nH]ccc34)cn2)C1 [Baricitinib phosphate] : Euclidean distance value = 1.99

// NC(=O)[C@@H]1CSSCCC(=O)N[C@@H](CCCCN=C(N)N)C(=O)NCC(=O)N[C@@H](CC(=O)O)C(=O)N[C@@H](Cc2c[nH]c3ccccc23)C(=O)N2CCC[C@H]2C(=O)N1 [Eptifibatide Acetate] : Euclidean distance value = 0.993

// O=C(O)c1ccccc1Nc1cccc(C(F)(F)F)c1 : Euclidean distance value = 0.674

// CCCc1nn(C)c2c(=O)[nH]c(-c3cc(S(=O)(=O)N4CCN(C)CC4)ccc3OCC)nc12 : Euclidean distance value = 0.716

// CCOC(=O)C1=C(N)Oc2ccc(Br)cc2C1C(C#N)C(=O)OCC (stereo not given) : Euclidean distance value = 1.12

// CCN(CC)CCOC(=O)c1ccc(N)cc1 [Procaine HCl] : Euclidean distance value = 0.744

// CC[C@@H](Nc1c(Nc2cccc(C(=O)N(C)C)c2O)c(=O)c1=O)c1ccc(C)o1 : Euclidean distance value = 0.995

// CC(=O)O[C@]1(C(C)=O)CC[C@H]2[C@@H]3C=C(C)C4=CC(=O)CC[C@]4(C)[C@H]3CC[C@@]21C [Megestrol Acetate] : Euclidean distance value = 1.57

// O=C(O)Cc1cc(I)c(Oc2ccc(O)c(I)c2)c(I)c1 : Euclidean distance value = 0.644

// N[C@H]1C[C@@H]1c1ccc(-c2cccc(O)c2)cc1 : Euclidean distance value = 1.07

// O=C(C=Cc1ccccc1)NC(NC(=S)Nc1ccc(Cl)cc1)C(Cl)(Cl)Cl (stereo not given) : Euclidean distance value = 1.33

// Nc1nc2c(ncn2COC(CO)CO)c(=O)[nH]1 : Euclidean distance value = 0.888

// CCc1cc2c(cc1N1CCC(N3CCOCC3)CC1)C(C)(C)c1[nH]c3cc(C#N)ccc3c1C2=O : Euclidean distance value = 0.905

// O=C(O)C1CSCN1 (stereo not given) : Euclidean distance value = 0.835
